System: MCF7
Assay: Cytotoxicity against human MCF7 cells after 48 hrs by MTT assay
Format: functional, cell-based
Conditions: MCF7, 48 h

smiles_notation	IC50
CCCCCCCC(=O)O[C@@H]1[C@@H](O)[C@@H](O)[C@H](O[C@@H]2[C@@H](O[C@@H]3O[C@@H](C)[C@H](O)[C@@H](O)[C@H]3O)[C@@H](OC(=O)[C@@H](C)CC)[C@H](O[C@@H]3[C@H]4OC(=O)CCCCCCCCC[C@H](CCCCC)O[C@@H]5O[C@H](C)[C@H](O)[C@H](O)[C@H]5O[C@H](O[C@H]3C)[C@@H]4O)O[C@H]2C)O[C@H]1C	4.1 µM
COc1cccc2c1C(=O)c1c(O)c3c(c(O)c1C2=O)C[C@@](O)(C(=O)CO)C[C@@H]3O[C@H]1C[C@H](N)[C@H](O)[C@H](C)O1	0.46 µM
CCCCCCCC(=O)O[C@@H]1[C@@H](O)[C@@H](O)[C@H](O[C@@H]2[C@@H](O[C@@H]3O[C@@H](C)[C@H](O)[C@@H](O)[C@H]3O)[C@@H](OC(=O)CCCCC)[C@H](O[C@@H]3[C@H]4OC(=O)CCCCCCCCC[C@H](CCCCC)O[C@@H]5O[C@H](C)[C@H](O)[C@H](O)[C@H]5O[C@H](O[C@H]3C)[C@@H]4O)O[C@H]2C)O[C@H]1C	4.2 µM

###

Test system: MCF7
Assay: Cytotoxicity against human MCF7 cells after 48 hrs by MTT assay
Assay type: functional, cell-based
Conditions: MCF7, 48 h
pIC50: −log10 of the molar value.

smiles_notation	pIC50
CCCCCCCC(=O)O[C@@H]1[C@@H](O)[C@@H](O)[C@H](O[C@@H]2[C@@H](O[C@@H]3O[C@@H](C)[C@H](O)[C@@H](O)[C@H]3O)[C@@H](OC(=O)CCCCCCC)[C@H](O[C@@H]3[C@H]4OC(=O)CCCCCCCCC[C@H](CCCCC)O[C@@H]5O[C@H](C)[C@H](O)[C@H](O)[C@H]5O[C@H](O[C@H]3C)[C@@H]4O)O[C@H]2C)O[C@H]1C	5.30

###

System: MCF7
Test: Cytotoxicity against human MCF7 cells after 48 hrs by MTT assay
Assay type: functional, cell-based
Conditions: MCF7, 48 h
Listed compounds paired with reported IC50

smiles_notation	target_or_test_system	units_text	IC50
CCCCCCCC(=O)O[C@@H]1[C@@H](O)[C@@H](O)[C@H](O[C@@H]2[C@@H](O[C@@H]3O[C@H](CO)[C@@H](O)[C@H](O)[C@H]3O)[C@@H](OC(=O)CCCCCCC)[C@H](O[C@@H]3[C@H]4OC(=O)CCCCCCCCC[C@H](CCCCC)O[C@@H]5O[C@H](C)[C@H](O)[C@H](O)[C@H]5O[C@H](O[C@H]3C)[C@@H]4O)O[C@H]2C)O[C@H]1C	MCF7	µM	7.4
CCCCCCCCCC(=O)O[C@H]1[C@H](O[C@@H]2[C@H]3OC(=O)CCCCCCCCC[C@H](CCCCC)O[C@@H]4O[C@H](C)[C@H](O)[C@H](O)[C@H]4O[C@H](O[C@H]2C)[C@@H]3O)O[C@@H](C)[C@H](O[C@@H]2O[C@@H](C)[C@H](OC(=O)CCCCCCC)[C@@H](O)[C@H]2O)[C@H]1O[C@@H]1O[C@@H](C)[C@H](O)[C@@H](O)[C@H]1O	MCF7	µM	9.8
